Source of measurements: patent US12453731B2

target: MLL1-WDR5 PPI (Homo sapiens (Human), UniProt P61964); assay: fluorescent probe assay of MLL1-WDR5 protein-protein interaction inhibition; details: fluorescent probe based on MLL1 peptide, incubation 0.5 hrs, read-out: MLL1-WDR5 PPI inhibiting activity IC50
pIC50: −log10 of the molar value.

{"query_smiles": "CN1CCN(c2ccc(-c3ccc(C(=O)N4CCOCC4)cc3)c(F)c2Nc2ncnc(Cl)c2N)CC1", "pIC50": 6.93}
{"query_smiles": "CN1CCN(c2cc(F)c(-c3ccc(C(=O)N(C)C)cc3)cc2Nc2ncnc(Cl)c2N)CC1", "pIC50": 7.54}
{"query_smiles": "CN1CCN(c2ccc(-c3ccc(C(=O)NCCCN4CCOCC4)cc3)cc2Nc2ncnc(Cl)c2N)CC1", "pIC50": 6.78}
{"query_smiles": "COC(=O)c1ccc(-c2cc(Nc3ncnc(Cl)c3N)c(N3CCN(C)CC3)cc2C)cc1", "pIC50": 6.50}
{"query_smiles": "CN1CCN(c2cc(F)c(-c3ccc(C(=O)N4CCOCC4)cc3)cc2Nc2ncnc(Cl)c2N)CC1", "pIC50": 7.44}
{"query_smiles": "CN1CCN(c2ccc(-c3ccc(C(=O)N(C)C)cc3)c(F)c2Nc2ncnc(Cl)c2N)CC1", "pIC50": 6.62}
{"query_smiles": "CN1CCN(c2ccc([N+](=O)[O-])cc2Nc2cc(Cl)ncn2)CC1", "pIC50": 4.99}
{"query_smiles": "CN1CCN(c2ccc(-c3ccc(C(=O)NCCN4CCOCC4)cc3)cc2Nc2ncnc(Cl)c2N)CC1", "pIC50": 6.74}
